B1: library; a variant is named by its letters at N, in order (parent)
chain: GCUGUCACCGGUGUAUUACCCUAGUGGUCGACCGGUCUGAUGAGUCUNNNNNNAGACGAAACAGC

# Variants of: B1
# procedure.details: normalized RNA/DNA level with ligand (relative to sTRSVctl = 100) (log10 (% of sTRSVctl)); ligand: hypoxanthine (xanthine aptamer); higher = less ribozyme self-cleavage, higher mRNA level
# protocol.conditions: ligand concentration (+) RNA-Seq: 5 mM, HEK293T, reporter: mCherry (pCS4076), ligand present: yes
Some variants, each annotated with its measured normalized RNA/DNA level with ligand (log10).
Note: the reply should be a number with no unit written.

mutant.code: UGUACU
observed.measurement: 1.93
--
mutant.code: GCCAAC
observed.measurement: 1.93
--
mutant.code: CUGGUC
observed.measurement: 1.96
--
mutant.code: CGAGAC
observed.measurement: 1.93
--
mutant.code: AACAGA
observed.measurement: 1.91
--
mutant.code: CGCCGU
observed.measurement: 1.99
--
mutant.code: UUUCCC
observed.measurement: 1.99
--
mutant.code: CUUAAA
observed.measurement: 1.9

Req: Read the entry GCUUAA and write its reported normalized RNA/DNA level with ligand (log10).
Resp: 1.92

Req: Read the entry GGGUGA and write its reported normalized RNA/DNA level with ligand (log10).
Resp: 1.95

Req: Read the entry ACAUGC and write its reported normalized RNA/DNA level with ligand (log10).
Resp: 1.91

Where do the numbers come from? From the supplement of paper PMC6757056.
